Hi there, I'd appreciate the recorded IC50 for every entry that follows.
- System: P-388 murine leukemia cells
- Assay Name: Cytotoxicity assay, P388 mouse leukemia cells
- Assay type: cell-based
- Assay Context: P-388, summary table, read-out: Test Cells at (ID 50), P-388
- Procedure: The following assay method was utilized to illustrate the antitumor effectiveness of compounds 1-7. […] 1. […] For DDC of known active compounds use log concentrations from 100 ug/ml to 0.01 ug/ml for range-finding assay; when range has been determined, use five concentrations between highest and lowest active concentrations. […] 4. Visually read plates with inverted microscope, comparing with solvent control. […]
One number for each entry, in µg/mL.

{"columns": ["Molecule", "Tgt", "Recorded Metric", "Value"],
 "data": [
  ["CC(=O)OCC(Cl)C1=CC(C)(C)C=CC1=O (stereo not drawn)", "P-388 murine leukemia cells", "IC50", 5],
  ["CC1(C)C=CC(=O)C(C(Cl)CBr)=C1 (stereo not drawn)", "P-388 murine leukemia cells", "IC50", 0.5],
  ["CC(=O)C1=CC(C)(C)C=CC1=O", "P-388 murine leukemia cells", "IC50", 5],
  ["COC(C)(OC)C1=CC(C)(C)C=CC1=O", "P-388 murine leukemia cells", "IC50", 10],
  ["CC1(C)C=CC(=O)C(C2CO2)=C1 (stereo not drawn)", "P-388 murine leukemia cells", "IC50", 10]
]}

Okay, next one:
The observed IC50 for "C=C(OC)C1=CC(C)(C)C=CC1=O" when tested with P-388 murine leukemia cells stands at 5
